Tested on: BT-549
assay_comment: NCI one-dose SRB anti-proliferative screen
Assay type: cell-based
test_settings: Homo sapiens; BT-549 (Breast Cancer), NCI one dose 10 µM; read-out: Cell growth inhibition %
Measured inhibition at 10 µM of individual entries
Entry rule: numbers only, all in %.

compound_structure_string | target_of_assay | metric_name | unit_of_measurement | result
COc1ccc(/C=C/C(=O)c2ccc(NC(=O)CSc3nnc(-c4ccc5[nH]c(-c6ccc(Cl)cc6)nc5c4)o3)cc2)cc1 | BT-549 | inhibition at 10 µM | % | 15
COc1ccc(-c2nc3cc(-c4nnc(SCC(=O)Nc5ccc(C(=O)/C=C/c6ccc(Cl)cc6)cc5)o4)ccc3[nH]2)cc1OC | BT-549 | inhibition at 10 µM | % | 0

## Input So what's the measured inhibition at 10 µM for this one? O=C(CSc1nnc(-c2ccc3[nH]c(-c4ccc(Cl)cc4)nc3c2)o1)Nc1ccc(C(=O)/C=C/c2ccc(Cl)cc2)cc1
## Output 0.37

## Input Further, for COc1ccc(/C=C/C(=O)c2ccc(NC(=O)CSc3nnc(-c4ccc5[nH]c(-c6ccc(OC)c(OC)c6)nc5c4)o3)cc2)cc1 ?
## Output 5.47

## Input Further, for COc1cc(-c2nc3cc(-c4nnc(SCC(=O)Nc5ccc(C(=O)/C=C/c6ccc(Cl)cc6)cc5)o4)ccc3[nH]2)cc(OC)c1OC ?
## Output 15.6

## Input Further, for COc1cc(-c2nc3cc(-c4nnc(SCC(=O)Nc5ccc(C(=O)/C=C/c6ccccc6)cc5)o4)ccc3[nH]2)cc(OC)c1OC ?
## Output 28.9

## Input Further, for O=C(CSc1nnc(-c2ccc3[nH]c(-c4ccc(Cl)cc4)nc3c2)o1)Nc1ccc(C(=O)/C=C/c2ccccc2)cc1 ?
## Output 0

## Input Further, for COc1ccc(-c2nc3cc(-c4nnc(SCC(=O)Nc5ccc(C(=O)/C=C/c6ccccc6)cc5)o4)ccc3[nH]2)cc1OC ?
## Output 5.86
